Task for the reader: assign each of the following compounds its reported melting point.

Record request: melting point value, item COc1ccc2c(c1)c(-c1cc3nccnc3[nH]1)cn2CC(=O)N1CCOCC1 [Example 12]
263 to 267 °C

Another compound to check: CC(C)(C)c1ccc(-c2[nH]c3nccnc3c2CCCO)cc1 [Example 26]
187 to 189 °C

Another compound to check: COc1ccc2[nH]cc(-c3cc4nccnc4[nH]3)c2c1 [Example 11]
268 to 271 °C

Another compound to check: CCOC(=O)COc1cc(-c2cc3nccnc3[nH]2)ccc1OC [Example 27]
183 to 184 °C

Another compound to check: Cn1cc(-c2cc3cccnc3[nH]2)c2cc(N)ccc21 [Example 18]
247 to 248 °C

Another compound to check: c1cncc(OCCCn2cc(-c3cc4nccnc4[nH]3)c3ccccc32)c1 [Example 6]
208 to 209 °C
